cell viability values by entry
# Tested on: HepG2
# Assay Notes: cell viability relative to DMSO; higher = less toxic
# Experimental Conditions: 72 h; 1 nM
Write it as a number; the unit % goes unstated.

Recorded results for 4 molecules are shown here.
Molecule | cell viability / %
CN[C@@H](C)C(=O)N[C@H](C(=O)N1CCC[C@H]1C(=O)N[C@H]1c2ccccc2C[C@H]1OCC#CC#CCO[C@@H]1Cc2ccccc2[C@@H]1NC(=O)[C@@H]1CCCN1C(=O)[C@@H](NC(=O)[C@H](C)NC)C1CCCCC1)C1CCCCC1 [AZD5582] | 107
O=[N+]([O-])c1cc2nc(O)c(O)nc2cc1[N+](=O)[O-] [DNQX] | 102
O=C(c1ccc(Nc2nccc(-c3cc4ccccc4s3)n2)cc1)N1CCC(N2CCCC2)CC1 [IKK-16] | 95.9
O=C(c1c2ccccc2cc2ccccc12)N1CCC(N2CCC[C@@H](C(=O)N3CCOCC3)C2)CC1 | 93.7

Input line: Quick one: cell viability for CN(C)c1cc(CNCC(C)(C)C)c(O)c2c1C[C@H]1C[C@H]3[C@H](N(C)C)C(O)=C(C(N)=O)C(=O)[C@@]3(O)C(O)=C1C2=O [omadacycline] ?
Output line: 101

Input line: // query cell viability value for entry N#CN1CCCC1 [pyrrolidine-1-carbonitrile]
Output line: 90.6

Input line: What value of cell viability has been recorded for this entry: CNC(=N)NC(=O)Nc1c(C)cccc1C [lidamidine]
Output line: 101

Input line: Which cell viability value belongs to `CN(C)CCOc1ccc(-c2nc(-c3ccncc3)c(-c3ccc4c(c3)CC/C4=N\O)[nH]2)cc1` ?
Output line: 110

Input line: Which measured cell viability value corresponds to CC(C)(C)[C@]1(O)CCN2C[C@H]3c4ccccc4CCc4cccc(c43)[C@@H]2C1 [butaclamol] ?
Output line: 108

Input line: Request the reported cell viability associated with Cc1ccc(F)c(NC(=O)Nc2ccc(-c3cccc4[nH]nc(N)c34)cc2)c1 [linifanib]
Output line: 94.1

Input line: Look at this molecule and give its reported cell viability. Cn1cc(C[C@@H](N)C(=O)O)c2ccccc21 [indoximod]
Output line: 114

Input line: Which value of cell viability has been reported for CCCCc1nc2cc(/C=C/C(=O)NO)ccc2n1CCN(CC)CC [SB-939] in the records?
Output line: 99.3

Input line: // lookup cell viability for `CC(C)c1cc(C(=O)N2Cc3ccc(CN4CCN(C)CC4)cc3C2)c(O)cc1O`
Output line: 108

Input line: Given CSc1nc(N)cc(Oc2ccc(-c3nnc(Nc4cccc(C(F)(F)F)c4)[nH]3)cc2)n1 [KG-5] , state its recorded cell viability.
Output line: 93.9

Input line: Need cell viability, item CCC(CC)O[C@@H]1C=C(C(=O)O)C[C@H](N)[C@H]1NC(C)=O [oseltamivir-carboxylate]
Output line: 104

Input line: Give its cell viability value. Item: CO[C@@]1(NC(=O)CSCC#N)C(=O)N2C(C(=O)O)=C(CSc3nnnn3C)CS[C@@H]21 [cefmetazole]
Output line: 106

Input line: Report cell viability for COc1ccccc1C(=O)Nc1cccc(NC(=O)c2cccc(C)c2)c1 [ML365] please.
Output line: 113

====

# System: Calu-3
# Assay Notes: cell viability relative to DMSO; higher = less toxic
# Experimental Conditions: 72 h; 100 nM
molecules and their reported cell viability
Write the value in % as a bare number.

Look over these answered cases.
Molecule | Units Of Measure | Measurement
CNCC(O)c1ccc(O)c(O)c1 (racemic) | % | 92.4
O=c1cc(-c2cccc3c2Sc2ccccc2S3)oc(N2CCOCC2)c1 | % | 98.2
O=C(O)c1cc(O)c(O)c(O)c1 | % | 96.4
CC(C)(C)NCc1cc(Nc2ccnc3cc(Cl)ccc23)c2c(c1O)CCCC2 [naphthoquine-phosphate] | % | 101
Cc1ccc(C(=O)C(C)CN2CCCCC2)cc1 (centres undefined) | % | 110
N=C1CCCN1Cc1[nH]c(=O)[nH]c(=O)c1Cl | % | 89.4

Input line: Given the molecule `Nc1nc2c(ccc3ccccc32)s1` , what is its reported cell viability?
Output line: 101

Input line: Please report the recorded cell viability for `CC1=C(/C=C/C(C)=C/C=C/C(C)=C/C=C/C=C(C)/C=C/C=C(C)/C=C/C2=C(C)CCCC2(C)C)C(C)(C)CCC1` .
Output line: 104

Input line: Report cell viability for C1CCN2C[C@@H]3C[C@@H](CN4CCCC[C@@H]34)[C@H]2C1 [sparteine-sulfate] please.
Output line: 108

====

# Tested on: U2OS
# Assay Notes: drug sensitivity score (DSS) for viability; higher = more toxic; extreme values may be limits of the assay
# Experimental Conditions: 72 h
Property Measured: drug sensitivity score
In your answer, state the number alone without any accompanying words.

Please review the following examples before continuing.
Compound | drug sensitivity score
Cc1nc2ccc(Oc3ccc(F)cc3)cc2c(=O)n1C[C@H]1CCCN(C(C)C)C1 [YIL-781] | 0
Cc1ccc(C(=O)C(C)CN2CCCCC2)cc1 (stereo not drawn) [tolperisone] | 0
C[C@]12CC[C@H]3[C@@H](CCC4=CC(=O)CC[C@@H]43)[C@@H]1CC[C@@H]2O [Nandrolone] | 0
c1ccc2nc(C3=NCCN3)ccc2c1 [BU-224] | 0
COC(=O)/C=C/c1cc(O)ccc1O [erbstatin-analog] | 3.9
COc1ccc2[nH]c([S@@+]([O-])Cc3ncc(C)c(OC)c3C)nc2c1 [esomeprazole] | 0
CCOCc1nc2c(N)nc3ccccc3c2n1CC(C)(C)O [resiquimod] | 0
Cn1cc(C(F)(F)F)nc1-c1ccc(OCC(O)CNCCOc2ccc(O)c(C(N)=O)c2)cc1 (stereo not drawn) | 0
c1ccc(CC2=NCCN2)cc1 [tolazoline] | 0
O=C(OC(C(F)(F)F)C(F)(F)F)N1CCC(C(O)(c2ccc3c(c2)OCO3)c2ccc3c(c2)OCO3)CC1 [KML29] | 0

Input line: What value of drug sensitivity score has been reported for the following compound? O=C1NC(=O)c2c1c1c3ccccc3[nH]c1c1[nH]c3ccccc3c21 [arcyriaflavin-a]
Output line: 0

Input line: Dear colleague, I am looking for the recorded drug sensitivity score of the following compound: COc1cc(C(=O)OCCCN2CCCN(CCCOC(=O)c3cc(OC)c(OC)c(OC)c3)CC2)cc(OC)c1OC [dilazep]
Output line: 0.2

Input line: Value lookup for drug sensitivity score; key = CC(C)(C)NCC(O)c1cc(Cl)c(N)c(C(F)(F)F)c1 (stereo not drawn) [mabuterol]
Output line: 0

====

# Tested on: HepG2
# Assay Notes: cell viability relative to DMSO; higher = less toxic
# Experimental Conditions: 72 h; 100 nM
Collected cell viability values appear next to each entry.
Field format: number, assumed %, no unit text.

Molecule | Measurement
O=C(OC(C(F)(F)F)C(F)(F)F)N1CCC(C(O)(c2ccc3c(c2)OCO3)c2ccc3c(c2)OCO3)CC1 [KML29] | 94.1
CCc1ccc(OCc2ccccc2C(=O)Nc2ccc3nc(C)cc(N)c3c2)cc1 [JTC-801] | 102
O=c1cc(-c2cccc3c2Sc2ccccc2S3)oc(N2CCOCC2)c1 | 93.5
CS(=O)(=O)c1ccc(C2=C(c3ccccc3)C(=O)OC2)cc1 [rofecoxib] | 95.2
CN(C)CCCN1c2ccccc2CCc2ccccc21 [imipramine] | 104

Please look at the following molecule next.
Input line: Look up cell viability: CN1CCC(OC(c2ccccc2)c2ccccc2)CC1 [diphenylpyraline]
Output line: 90.6

====

# Tested on: Calu-3
# Assay Notes: cell viability relative to DMSO; higher = less toxic
# Experimental Conditions: 72 h; 100 nM
Property Measured: cell viability (%)
The reply should be a number in %, with the unit left off.

Compound | Property Measured | Units Of Measure | Measurement
CCn1cc(C(=O)O)c(=O)c2cc(F)c(N3CCNC(C)C3)c(F)c21 (stereo not drawn) | cell viability | % | 108
COc1cc(N)c(Cl)cc1C(=O)OCCCN1CCCCC1 | cell viability | % | 93.5

Input line: Could you tell me which cell viability is on file for `O=C(CCBr)N1CC[N+]2(CC1)CC[N+]1(CCN(C(=O)CCBr)CC1)CC2` ?
Output line: 94.7

Input line: Sample O=C(O)[C@@H]1C[C@@H](O)CN1 [L-hydroxyproline] — what was its cell viability?
Output line: 93.5

Input line: Give its cell viability value. Item: C=CC1=C(C)C2=CC3=NC(=C(CC(=O)O)C4=NC(=C(C)C4=C(O)O)C=c4[nH]c(c(C)c4CC)=CC1=N2)C(CCC(=O)O)C3C (stereo not drawn)
Output line: 93.2

Input line: Report cell viability for `CC(C)c1nc(N(C)S(C)(=O)=O)nc(-c2ccc(F)cc2)c1/C=C/[C@@H](O)C[C@@H](O)CC(=O)O` please.
Output line: 101

Input line: I have this compound here, `CN1CCN(c2c(F)cc3c(=O)c(C(=O)O)cn(CCF)c3c2F)CC1` , and I need its recorded cell viability.
Output line: 102

Input line: // lookup cell viability for `COc1ccc2c(c1)C(=O)N(CCc1ccc(S(=O)(=O)NC(=O)NC3CCCCC3)cc1)C(=O)C2(C)C`
Output line: 99.9
